Biological target: CUL5 (Homo sapiens, UniProt Q93034, L345D/V341R)
Construct: GST-TEV (N, cleaved yes); made in house; host or cells: E. coli BL21 CodonPlus
Sequence (Q93034 1-386 V341R/L345D): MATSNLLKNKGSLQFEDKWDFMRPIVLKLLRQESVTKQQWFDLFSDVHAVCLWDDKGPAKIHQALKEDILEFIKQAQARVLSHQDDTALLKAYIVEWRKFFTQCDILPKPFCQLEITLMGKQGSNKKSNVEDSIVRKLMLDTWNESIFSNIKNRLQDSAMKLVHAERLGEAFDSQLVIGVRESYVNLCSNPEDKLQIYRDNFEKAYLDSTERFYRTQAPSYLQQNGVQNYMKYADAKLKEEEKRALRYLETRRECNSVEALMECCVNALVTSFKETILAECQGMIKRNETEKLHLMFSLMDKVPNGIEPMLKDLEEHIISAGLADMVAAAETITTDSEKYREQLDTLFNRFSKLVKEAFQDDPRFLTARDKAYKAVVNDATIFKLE
Test: Naive Library Presenter Screening (phage, NGS), CUL5
Assay type: binding
Settings: CUL5 target concentration 10 nM
Ends that are not written are not given here.
measurement.name: interaction data at Target Concentration 10
One number for each entry.

Field: example entries. Status: answers known.
item.sequence | system.name | measured.value
DPAWRACAQAAWDCIIA | CUL5 (Homo sapiens, UniProt Q93034, L345D/V341R) | 1
DPAWMTCATAAWECYLA | CUL5 (Homo sapiens, UniProt Q93034, L345D/V341R) | 6
DPAWRECAHAAWQCYIQ | CUL5 (Homo sapiens, UniProt Q93034, L345D/V341R) | 0
DPAWFDCAEAAWQCVFI | CUL5 (Homo sapiens, UniProt Q93034, L345D/V341R) | 2
DPAWAICAEAAWDCFMI | CUL5 (Homo sapiens, UniProt Q93034, L345D/V341R) | 0

Please state, for each entry, its recorded interaction data at Target Concentration 10.
1. DPAWFTCAQAAWDCVFH
2. DPATFACANAAWECYAR
3. DPAIQQCAEAAWSCYVE
4. DPAWMRCATAAWECVMT

Response:
1. 0
2. 0
3. 0
4. 16

Please state, for each entry, its recorded interaction data at Target Concentration 10.
1. DPAWQWCAEAAWQCITH (not fully specified (C-terminus, bridges); cysteine pairing not given here)
2. DPAWWECAEAAWQCQVL

Response:
[14, 0]

----------
Target: CUL4B (Homo sapiens, UniProt Q13620, L520D/V516R)
Construct: GST-TEV (N, cleaved yes); made in house; host or cells: E. coli BL21 CodonPlus
Sequence (Q13620 206-557 V516R/L520D): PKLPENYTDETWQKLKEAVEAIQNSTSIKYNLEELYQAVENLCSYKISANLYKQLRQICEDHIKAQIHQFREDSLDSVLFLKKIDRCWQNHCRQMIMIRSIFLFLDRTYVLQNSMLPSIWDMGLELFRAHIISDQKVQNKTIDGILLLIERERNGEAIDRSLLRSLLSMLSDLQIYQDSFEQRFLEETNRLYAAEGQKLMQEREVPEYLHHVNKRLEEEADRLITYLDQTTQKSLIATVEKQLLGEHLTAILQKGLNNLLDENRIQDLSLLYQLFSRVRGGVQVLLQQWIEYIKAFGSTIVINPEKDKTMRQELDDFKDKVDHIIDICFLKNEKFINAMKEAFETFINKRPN
Assay: Naive Library Presenter Screening (phage, NGS), CUL4B
Assay type: binding
Conditions: CUL4B target concentration 300 nM
Give 1 when the value for interaction data at Target Concentration 300 is at least 10. Give -1 when it is less.

Query: Has `DPATTECILAAWICDRF` a recorded interaction data at Target Concentration 300 greater than or equal to 10?
Response: 1

Query: Has `DPADRQCLFAAWYCEHT` a recorded interaction data at Target Concentration 300 greater than or equal to 10?
Response: -1

Query: Has `DPATRMCELAAWTCEVW` a recorded interaction data at Target Concentration 300 greater than or equal to 10?
Response: 1

Query: Has `DPADRWCELAAWICDEF` a recorded interaction data at Target Concentration 300 greater than or equal to 10?
Response: -1

Query: Has `DPASRMCEMAAWFCENY` a recorded interaction data at Target Concentration 300 greater than or equal to 10?
Response: 1

Query: Has `DPADRQCIFAAWMCEAF` a recorded interaction data at Target Concentration 300 greater than or equal to 10?
Response: -1

Query: Has `DPAMNHCVLAAWVCDTF` a recorded interaction data at Target Concentration 300 greater than or equal to 10?
Response: 1

Query: Has `DPAERHCQLAAWVCHQF` a recorded interaction data at Target Concentration 300 greater than or equal to 10?
Response: 1

Query: Has `DPADRLCELAAWVCQSF` a recorded interaction data at Target Concentration 300 greater than or equal to 10?
Response: 1
